assay: chemical genetic growth profiling, strain panel (AID 1159580);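 further: tested at 20 µM; growth read once vehicle control cultures reached saturation at 30 °C; 1 = growth at the plate median or of vehicle wells; lower values mean less growth of the strain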; conditions: S. cerevisiae deletion strains, growth OD, locus YNL183C, strain NPR1, active compounds read low
Hit rate of the full screen: of about 5,500 compounds, about 2,000 (36%) were called active. About 18% were inconclusive and are not listed. This is one part of the list.
MEASURED_PARAMETER: normalized growth

• CC(C)N1C(=O)c2ccccc2NS1(=O)=O = 0.973
• COCC1=C(C(=O)OC(C)OC(=O)OC(C)C)N2C(=O)[C@@H](NC(=O)/C(=N\OC)c3csc(N)n3)[C@H]2SC1 (stereo partly drawn) = 0.945
• O=C1c2ccccc2C(=O)C1(O)C1(O)C(=O)c2ccccc2C1=O = 0.984
• O=C1NS(=O)(=O)c2ccccc21 = 0.931
• Cc1c(NC(C)C)c(=O)n(-c2ccccc2)n1C = 0.974
• CC(=O)Oc1c(C)c(C)c2c(c1C)CCC(C)(CCCC(C)CCCC(C)CCCC(C)C)O2 (stereo not drawn) = 0.949
• COC1=C(OC)C(=O)C(CCCCCCCCCCO)=C(C)C1=O = 0.92
• C=CCC1C(=O)N(S(=O)(=O)c2ccc(Cl)cc2)N=C1CCC (stereo not drawn) = 0.98
• CC(C)=CCC/C(C)=C/CO = 0.991
• O=C(OCCNc1ccc([N+](=O)[O-])cn1)c1ccc([N+](=O)[O-])o1 = 0.684
• Cc1cc(N=Cc2cc(Cl)cc(Cl)c2O)no1 = 0.429
• O=S(=O)(Nc1cc(C(F)(F)F)cc(C(F)(F)F)c1)c1ccc(Cl)s1 = 0.568
• S=C(NCc1cccs1)Nc1cc(Cl)cc(Cl)c1 = 0.928
• COC(=O)c1sccc1S(=O)(=O)Nc1cc(C(F)(F)F)cc(C(F)(F)F)c1 = 0.997
• O=[N+]([O-])c1cc(C(F)(F)F)ccc1Sc1n[nH]c(-c2cc(Cl)cc(Cl)c2)n1 = 0.497
• CNC(C)(C)Cc1ccccc1 = 1
• COc1ccccc1OCC(O)COC(N)=O (stereo not drawn) = 0.976
• COc1cc(OC)c2c(OC)c(-c3ccc4c(c3)OCO4)c(=O)oc2c1 = 0.888
• O=C(O)C1=C(CSc2nnnn2CS(=O)(=O)O)CS[C@@H]2C(NC(=O)[C@H](O)c3ccccc3)C(=O)N12 (stereo partly drawn) = 0.952
• COc1ccc(-c2c(O)c3c(OC)c4c(cc3oc2=O)OC(C)(C)C=C4)cc1 = 0.911
• CN1CCCCC1c1ccc(-c2cccnc2)nc1 (stereo not drawn) = 0.979
• O=C1C(NCc2ccccc2)=C(NCc2ccccc2)C(=O)c2ccccc21 = 0.904
• O=C1c2ccccc2C(=O)c2ccccc21 = 0.961
• ClC1C(Cl)C(Cl)C(Cl)C(Cl)C1Cl (stereo not drawn) = 0.905
• O=c1c(O)c(-c2ccccc2)oc2cccc(O)c12 = 0.793
• CC(=O)c1ccc[nH]1 = 0.902
• O=C1c2ccccc2C(=O)c2sccc21 = 0.161
• O=C(Nc1ccccc1Sc1ccc(C(F)(F)F)cc1[N+](=O)[O-])C(Cl)Cl = 0.96
• Cc1ccc2nc3c(nc2c1)-c1ccccc1C3=O = 0.259
• CN1CCN(C2=Nc3cc(Cl)ccc3Nc3ccccc32)CC1 = 0.99
• Cc1cc2nc3c(=O)[nH]c(=O)nc-3n(CC(O)C(O)C(O)CO)c2cc1C (stereo not drawn) = 0.933
• COc1ccc(NS(=O)(=O)c2ccc(N)cc2)nn1 = 0.935
• O=C1C=C(O)c2ccccc2C1=O = 0.884

====

test: chemical genetic growth profiling, strain panel (AID 1159580); details: S. cerevisiae deletion strains, growth OD, locus YGL253W, strain hxk2, active compounds read low
The whole screen tested about 5,500 compounds, of which about 2,000 (36%) were called active. Roughly 18% stayed inconclusive and do not appear here. This is one part of the list.
Item-by-item account of normalized growth
MEASURED_PARAMETER: normalized growth

• CC(=CC1CCC(C)C2C1=C(C)CC2O)C(=O)O (centres undefined) = 1.03
• O=c1c(O)c(-c2ccccc2)oc2ccc3occc3c12 = 0.501
• O=C(Nc1ccc([N+](=O)[O-])cc1Cl)c1cc(Cl)ccc1O = 0.933
• CCCCN(CC)c1c([N+](=O)[O-])cc(C(F)(F)F)cc1[N+](=O)[O-] = 1.02

====

test: chemical genetic growth profiling, strain panel (AID 1159580);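 further: tested at 20 µM; growth read once vehicle control cultures reached saturation at 30 °C; 1 = growth at the plate median or of vehicle wells; lower values mean less growth of the strain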; details: S. cerevisiae deletion strains, growth OD, locus YHR129C, strain ARP1, active compounds read low
Screen size: about 5,500 compounds; about 2,000 (36%) were called active. Another 18% or so got no clear call; they are omitted. Some of the results follow.
MEASURED_PARAMETER: normalized growth

* COC(=O)C[C@H]1C(C)(C)[C@H](O)[C@@H]2CC3=C4CC(O)O[C@@H](c5ccoc5)[C@]4(C)CCC3[C@@]1(C)C2=O (some centres undefined) | 0.99 (inactive)
* CCCC(=O)Nc1ccc(OCC(O)CNC(C)C)c(C(C)=O)c1 (centres undefined) | 1.01 (inactive)
* COc1cc([C@@H]2c3cc4c(cc3[C@H](O)[C@H]3COC(=O)[C@H]23)OCO4)cc(OC)c1OC | 1.01 (inactive)
* COc1ccc(-c2c(OC)c3c(OC)c4c(cc3oc2=O)OC(C)(C)C=C4)cc1 | 1.02 (inactive)

====

assay: chemical genetic growth profiling, strain panel (AID 1159580);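 further: tested at 20 µM; growth read once vehicle control cultures reached saturation at 30 °C; 1 = growth at the plate median or of vehicle wells; lower values mean less growth of the strain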; conditions: S. cerevisiae deletion strains, growth OD, locus YGL248W, strain PDE1
Screen size: about 5,500 compounds; about 2,000 (36%) were called active. Roughly 18% stayed inconclusive and do not appear here. Cut-off read from the data, not from the text of the source: active = normalized growth mostly below about 0.91 (no sharp cut-off); inconclusive = no clear call, values can overlap the other calls; inactive = mostly above about 0.92. Some of the results follow.
Outcomes: active, inactive

- CC(C)C1CCC(C(=O)N[C@@H](Cc2ccccc2)C(=O)O)CC1 (stereo partly drawn): inactive
- CCCC(=O)Nc1ccc(OCC(O)CNC(C)C)c(C(C)=O)c1 (stereo not drawn): inactive
- COc1cc2cccc(OC)c(=O)c2c(OC)c1OC: inactive
- CN(C)CCC[C@@]1(c2ccc(F)cc2)OCc2cc(C#N)ccc21: inactive
- O=c1c(O)c(-c2ccccc2)oc2ccccc12: inactive
- O=C(O)c1cc(=O)c2ccccc2[nH]1: inactive
- O=c1c(O)c(-c2ccccc2)oc2ccc3occc3c12: active
- CC(=O)OCC1=C(C(=O)O)N2C(=O)[C@@H](NC(=O)CSc3ccncc3)[C@H]2SC1: inactive
- CC(=O)OC1CCC2(O)CC1(C)CCC1C2CC1(C)C (stereo not drawn): inactive
- Oc1cccc2cccnc12: active
- CNC(C)(C)Cc1ccccc1: inactive
- O=C(O)c1cccnc1C(=O)O: inactive
- C[C@H]1C(=O)CCC2[C@]3(C)CC[C@@]4(C)C5CC(C)(C)CC[C@]5(C)CC[C@]4(C)C3CC[C@@]21C (stereo partly drawn): inactive
- CCCc1ncc(C[n+]2ccccc2C)c(N)n1: inactive
- COc1cc(Cc2cnc(N)nc2N)cc(OC)c1OC: inactive
- O=C(O)CCC(=O)OC[C@@H](NC(=O)C(Cl)Cl)[C@H](O)c1ccc([N+](=O)[O-])cc1: inactive
- COc1cc(O)c2c(c1)C(=O)c1cc(C)cc(O)c1C2=O: inactive
- CN1CCN(C2=Nc3cc(Cl)ccc3Nc3ccccc32)CC1: inactive

====

experiment: chemical genetic growth profiling, strain panel (AID 1159580);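 further: tested at 20 µM; growth read once vehicle control cultures reached saturation at 30 °C; 1 = growth at the plate median or of vehicle wells; lower values mean less growth of the strain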; details: S. cerevisiae deletion strains, growth OD, locus YKR026C, strain gcn3
The campaign covered roughly 5,500 compounds. About 2,000 (36%) were called active. About 18% were inconclusive and are not listed. Cut-off read from the data, not from the text of the source: active = normalized growth mostly below about 0.91 (no sharp cut-off); inconclusive = no clear call, values can overlap the other calls; inactive = mostly above about 0.92. The list shows a part of the results.
Outcomes: TRUE (active), FALSE (inactive)

• O=c1c(O)c(-c2ccc(O)cc2)oc2ccccc12 = FALSE
• CC(=O)c1ccc[nH]1 = FALSE
• C[C@H]1C(=O)CCC2[C@]3(C)CC[C@@]4(C)C5CC(C)(C)CC[C@]5(C)CC[C@]4(C)C3CC[C@@]21C (some centres undefined) = FALSE
• C=C[C@H]1CN2CC[C@H]1C[C@H]2[C@H](O)c1ccnc2ccccc12 = FALSE
• COC(=O)C[C@H]1C(C)(C)[C@@H](OC(C)=O)[C@@H]2CC3=C4CC(=O)O[C@@H](c5ccoc5)[C@]4(C)CCC3[C@@]1(C)C2=O (some centres undefined) = FALSE
• CC(=O)Nc1c(I)cc(I)c(C(=O)O)c1I = FALSE
• O=C1NS(=O)(=O)c2ccccc21 = FALSE
• CC(=O)c1c(O)cc(O)cc1O = FALSE
• NC(Cc1ccc(Cl)cc1)C(=O)O (centres undefined) = FALSE
• O=C1c2cccc(O)c2C(=O)c2c(O)cccc21 = FALSE
• COc1cc(O)c2c(c1)C(=O)c1cc(C)cc(O)c1C2=O = FALSE
• Cn1c(=O)c2c(ncn2C)n(C)c1=O = FALSE
• CNC(C)[C@@H]1CC[C@@H](N)[C@@H](OC2[C@@H](N)C[C@@H](N)[C@H](OC3OC[C@](C)(O)[C@H](NC)[C@H]3O)[C@H]2O)O1 (some centres undefined) = FALSE
• CC(=O)OC[C@@]1(O)C[C@@]23CCC4c5ccoc5CC[C@]4(C)C2CC[C@@H]1C3 (some centres undefined) = FALSE
• O=C1C=CC(=O)c2ccccc21 = TRUE
• COc1ccc(CC(=O)c2ccc(O)cc2O)cc1 = FALSE
• CCCCCC/C=C\CCCCCCCc1cccc(O)c1C(=O)O = FALSE
• O=c1c(O)c(-c2ccccc2)oc2ccccc12 = TRUE
• COc1ccc([C@@H](C)C(=O)c2ccc(O)cc2O)cc1 = FALSE
